# System: TaFdcV
# ASSAY_EXPLANATION: Acid binding and cycloadduct formation with TaFdcV (UV-Vis, ESI-MS, co-crystallization)
MEASURED_METRIC: binding to TaFdcV, UV-Vis spectrum after desalting

> print(dat)
    chem.smiles      value.reported
1   CCC=CC(=O)O  irreversibly binds
2  CCCC=CC(=O)O  irreversibly binds

Cited source for all entries: patent US20250327097A1
